# melting point per entry

Answered examples (6):
1) CCOC(=O)Cc1csc(NC(=O)c2cn(C(C)C)c3cc(Cl)ccc23)n1: 65 to 75 °C
2) COc1ccc2c(C(=O)Nc3nccs3)cn(C(C)C)c2c1: 182 to 185 °C
3) CC(C)n1cc(C(=O)Nc2nccs2)c2ccc(O)cc21: 239 to 241 °C
4) CC(C)n1cc(C(=O)Nc2ccccn2)c2ccc(Cl)cc21: 149 to 150 °C
5) CC(C)n1cc(C(=O)Nc2nccs2)c2ccc(Cl)cc21: 202 to 204 °C
6) Cc1cnc(NC(=O)c2cn(C(C)C)c3cc(Cl)ccc23)s1: 216 to 219 °C

If you can, please state the reported melting point value of CC(C)n1cc(C(=O)Nc2ccc(C(F)(F)F)cn2)c2ccc(Cl)cc21 . 179 to 181 °C

If you can, please state the reported melting point value of CC(C)n1cc(C(=O)Nc2nccs2)c2ccc(S(C)(=O)=O)cc21 . 247 to 249 °C

---

REPORTED ENDPOINT: melting point

1) O=C(Nc1nccs1)c1cn(CC2CCCC2)c2cc(Cl)ccc12: 117 to 119 °C

If you can, please state the reported melting point value of CC(C)n1cc(C(=O)Nc2nccs2)c2ccc(F)cc21 . 203 to 204 °C

If you can, please state the reported melting point value of O=C(Nc1nccs1)c1cn(CC2CCCCC2)c2cc(Cl)ccc12 . 181 to 183 °C

If you can, please state the reported melting point value of CC(C)n1cc(C(=O)Nc2nccs2)c2ccc(Br)cc21 . 205 to 207 °C

If you can, please state the reported melting point value of CCCCCn1cc(C(=O)Nc2nccs2)c2ccc(Cl)cc21 . 139 to 141 °C

If you can, please state the reported melting point value of Cc1ccc(NC(=O)c2cn(C(C)C)c3cc(Cl)ccc23)nc1 . 132 to 134 °C

If you can, please state the reported melting point value of O=C(Nc1nccs1)c1cn(CC2CC2)c2cc(Cl)ccc12 . 185 to 187 °C

---

REPORTED ENDPOINT: melting point

1) CCCCn1cc(C(=O)Nc2nccs2)c2ccc(Cl)cc21: 168 to 169 °C
2) Cc1csc(NC(=O)c2cn(C(C)C)c3cc(Cl)ccc23)n1: 201 to 203 °C
3) CC(C)n1cc(C(=O)Nc2nccs2)c2ccc(C(F)(F)F)cc21: 246 to 247 °C
4) CC(C)CCn1cc(C(=O)Nc2nccs2)c2ccc(Cl)cc21: 179 to 180 °C
5) CC(C)n1cc(C(=O)Nc2nncs2)c2ccc(Cl)cc21: 274 to 275 °C

If you can, please state the reported melting point value of Cc1ccc2c(C(=O)Nc3nccs3)cn(C(C)C)c2c1 . 215 to 217 °C

If you can, please state the reported melting point value of CC(C)Cn1cc(C(=O)Nc2nccs2)c2ccc(Cl)cc21 . 200 to 202 °C

If you can, please state the reported melting point value of O=C(Nc1nccs1)c1cn(CC2CCC2)c2cc(Cl)ccc12 . 169 to 173 °C

---

REPORTED ENDPOINT: melting point

Answered examples (3):
1) CC(C)n1cc(C(=O)Nc2ncc(Cl)s2)c2ccc(Cl)cc21: 252 to 253 °C
2) CC(C)n1cc(C(=O)Nc2nccs2)c2ccc([N+](=O)[O-])cc21: 236 to 239 °C
3) CSc1ccc2c(C(=O)Nc3nccs3)cn(C(C)C)c2c1: 172 to 176 °C

If you can, please state the reported melting point value of CC(C)n1cc(C(=O)Nc2ccc(Cl)cn2)c2ccc(Cl)cc21 . 131 to 134 °C

If you can, please state the reported melting point value of CC(C)n1cc(C(=O)Nc2ccc(Br)cn2)c2ccc(Cl)cc21 . 57 to 64 °C

If you can, please state the reported melting point value of CCn1cc(C(=O)Nc2nccs2)c2ccc(Cl)cc21 . 234 to 236 °C

If you can, please state the reported melting point value of CC(C)n1cc(C(=O)Nc2ncc(Br)s2)c2ccc(Cl)cc21 . 240 to 242 °C

If you can, please state the reported melting point value of CCCn1cc(C(=O)Nc2nccs2)c2ccc(Cl)cc21 . 175 to 176 °C
